Values from patent EP0291663A2

# test_name: in vivo
# condition_parameters: rat, Ratte (iv)
Counter-ions that a name gives are not always drawn.
measure_name: LD50
Numeric answer plus unit only.

For CC(C)(C)NCC(O)COc1ccccc1-c1ccccc1 (stereo not shown) [Bipranol HCl] the compound record lists LD50 as 11 mg/kg
